log10 Ki reference
experimental_target: Cannabinoid receptor 1 (Rattus norvegicus, UniProt P20272)
Sequence (P20272 whole entry): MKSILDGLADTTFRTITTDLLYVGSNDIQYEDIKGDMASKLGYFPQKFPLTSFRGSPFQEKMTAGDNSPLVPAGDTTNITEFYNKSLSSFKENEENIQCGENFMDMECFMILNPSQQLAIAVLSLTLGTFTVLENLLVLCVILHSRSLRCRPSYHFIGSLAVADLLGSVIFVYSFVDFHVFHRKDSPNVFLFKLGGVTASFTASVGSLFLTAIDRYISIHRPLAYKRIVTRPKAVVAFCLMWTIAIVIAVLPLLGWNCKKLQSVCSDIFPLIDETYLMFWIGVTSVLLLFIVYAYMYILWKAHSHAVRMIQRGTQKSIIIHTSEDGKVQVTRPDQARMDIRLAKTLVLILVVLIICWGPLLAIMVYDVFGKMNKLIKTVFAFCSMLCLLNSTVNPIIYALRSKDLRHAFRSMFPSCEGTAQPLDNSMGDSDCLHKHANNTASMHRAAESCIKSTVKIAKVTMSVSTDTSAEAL
assay_procedure: Displacement of [3H]CP-55940 from CB1 receptor in rat brain synaptosomes
The common logarithm of Ki in nM is what is listed.

Entry under test: CCCCCCC(C)(C)c1cc(O)c2c(c1)OC(C)(C)c1ccc(OC)cc1-2 . Its log10 Ki was 0.73

# log10 Ki of CCCCCCC(C)(C)c1cc(O)c2c(c1)oc(=O)c1ccc(OC)cc12 = 2.56

Consider CCCCCCC(C)(C)c1cc(O)c2c(c1)oc(=O)c1ccc(C)cc12 . Its measured log10 Ki is 1.59

compound CCCCCCC(C)(C)c1cc(O)c2c(c1)oc(=O)c1ccc(O)cc12 , log10 Ki observed: 2.60

According to the records, this compound CCCCCCC(C)(C)c1cc(O)c2c(c1)OC(C)(C)c1ccc(C)cc1-2 displays log10 Ki of -0.02
